Molecular target: T1, human C16orf54 (human, UniProt Q6UWD8 1-224)
T1 construct: also called huC16orf54; hC16orf54
T1 sequence: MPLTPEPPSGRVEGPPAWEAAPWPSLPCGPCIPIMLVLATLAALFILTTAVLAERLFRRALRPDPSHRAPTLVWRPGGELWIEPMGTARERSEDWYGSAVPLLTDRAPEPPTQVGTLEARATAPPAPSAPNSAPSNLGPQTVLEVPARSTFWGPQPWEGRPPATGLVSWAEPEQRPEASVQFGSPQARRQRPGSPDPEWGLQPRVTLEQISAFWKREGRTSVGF
Test: flow cytometry, 10 ug/ml antibody, D42M1-huC16orf54 cells
Reported Endpoint: Median fold change relative to IgG control (fold)
Number only, in fold; omit the unit.

Some binders with known Median fold change relative to IgG control results, for comparison:
Which Median fold change relative to IgG control value is on record for R29-7-1C (antibody, V domains shown, Murine monoclonal IgG2a from a hybridoma) VH: DVQLQESGPGLVKPSQSLSLTCTVTGYSITSDYAWNWIRQFPGNKLEWMGYISYSGSIRYNPSLKSRISITRDTSKNQFFLQLNSVTTEDTATYYCAREKYDNYYYAMDYWGQGTSVTVSS VL: DIVMSQSPSSLAVSVGEKVTLSCKSSQNLLYSTNQKNYLAWYQQKPGQSPKLLIYWASTRESGVPDRFTGSGSGTDFTLTISSVKAEDLAVYYCQQYYSYRTFGGGTKLEIK ? 205

// query Median fold change relative to IgG control value for entry R29-8-50C (antibody, V domains shown, Murine monoclonal antibody from a hybridoma) VH: EVKLVESGGGLVKPGGSLKFSCAASGFTFSSYAVSWVRQTPEKRLEWVASITSGGRTYYPDSVKGRFTISRDNARSMLYLHMSSLRSEDTAMYYCTRGWDENDLWGQGTTLTVSS VL: DVVMTQTPLSLPVSLGDQASISCRSSQSLVYSNGNTYLHWYLQRPGQSPQLLIYKVSNRFSGVPDRFSGSGSGTDFTLKISRVEAEDLGVYFCSQTTHVPWTFGGGTKLEIK 159

For R29-8-75B (antibody, V domains shown, Murine monoclonal antibody from a hybridoma) VH: DVQLVESGGGLVQPGGSRKLSCAASGFTFSRFGMHWVRQAPEKGLEWVAYISSGSSTIYYADTVKGRFTISRDNPKNTLFLQMTSLRSEDTAMYYCARVDYDVALAYWGQGTLVTVSA VL: GVLMTQTPLSLPVSLGDQASISCRSSQSIVHRNGNTYLEWYLQKPGQSPKLLIYKVSNRFSGVPDRFSGSGSGTDFTLKISRVEAEDLGVYYCFQGSQWTFGGGTKLEIK , what is its reported Median fold change relative to IgG control? 148

May I ask what Median fold change relative to IgG control has been recorded for R29-8-136C (antibody, V domains shown, Murine monoclonal antibody from a hybridoma) VH: DVQLQESGPGLVKPSQSLSLTCTVTGYSITSDYAWNWIRQFPGNKLEWMGYINYSGSSRYNPSLKSRISITRDTSKNHFFLQLNSVTPEDTATYHCARERYDGVYYGMDYWGQGTSVTVSS VL: DIVMSQSPSSLAVSVGEKVTMSCKSSQSLLYSSNQKNYLAWYQQKPGQSPKLLIYWASTRESGVPDRFTGSGSGTDFTLTISSVKTEDLAVYYCQQYYSYRTFGGGTKLEIK ? 202

New cases:
Name the reported Median fold change relative to IgG control value associated with the binder R29-8-120B (antibody, V domains shown, Murine monoclonal antibody from a hybridoma) VH: KVNLVESGGGLVKAGGSLKLSCAASGFTFSIYAMSWFRQTPEKRLEWVASITGGGTNFYPDSVRGRFTISRDNVRNILYLQMSSLRSEDTAMYYCARGWDENDYWGQGTTLTVSS VL: DVVMTQTPLSLPVSLGDQASISCRSSQSLVYSNGNTYLHWYLQKPGQSPKLLIYKVSNRFSGVPDRFSGSGSGTDFTLKISRVEAEDLGVYFCSQSTHVPWTFGGGTKLEIK 106
